# protocol.details: amyloid nucleation score (Sup35N fusion, yeast selection) (log enrichment); library NNK1; higher = more nucleation; inactive = no reads after selection;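 note: zero at mode of non-aggregating sequences after 7 days selection at 30°C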
Category | rule: reported amyloid nucleation score within range, see low group: < 0.08; middle group: ≥ 0.08 and < 0.6; high group: ≥ 0.6

Asked: Field: class (amyloid nucleation score) — entry: `DGKKYTVMSFSEQSK`
Given back: low group

###

# protocol.details: amyloid nucleation score (Sup35N fusion, yeast selection) (log enrichment); library NNK1; higher = more nucleation; inactive = no reads after selection
Category | rule: reported amyloid nucleation score within range, see LOW: < 0.3; MID: ≥ 0.3 and < 2; HIGH: ≥ 2

As a guide, the following entries are already answered.
substance=VCYGVLPFEEWKMSFSACVT class_name=MID
substance=MALMYLMVTRVDLALSL class_name=LOW
substance=SAPIDISMQLC class_name=LOW
substance=LDWLMGGRTA class_name=LOW
substance=QMGCAYEDARRSHDFKCCFG class_name=LOW
substance=HNFEFFMGQGMIFWCRLTEN class_name=MID
substance=FAQMWSLALRISVRNVISQF class_name=HIGH
substance=TVIRSVIIPITPPIIR class_name=MID

Asked: Field: class (amyloid nucleation score) — entry: `DPMHYL`
Given back: HIGH

Asked: Field: class (amyloid nucleation score) — entry: `AGYVWAKSSKDVKFYVLDM`
Given back: HIGH

###

# protocol.details: amyloid nucleation score (Sup35N fusion, yeast selection) (log enrichment); library NNK3; higher = more nucleation; inactive = no reads after selection
measured.quantity: amyloid nucleation score

Illustrative cases are given below, each with its answer.
substance=CHVLWGCCIRSQVCCSAYNV measured_quantity="amyloid nucleation score" result=2.06
substance=EHCSGNFRLNLSCDEVHIWM measured_quantity="amyloid nucleation score" result=2.99
substance=WWFLGGRSRGDRGILMVDVA measured_quantity="amyloid nucleation score" result=0.214
substance=EKQKSLFCVLMVGLFYVNV measured_quantity="amyloid nucleation score" result=inactive

Asked: Using the record for `VIRVKSSCLVLLEHKLLACG` , state its measured amyloid nucleation score.
Given back: inactive

Asked: Using the record for `PSVTLQHSGIATWSILDRTL` , state its measured amyloid nucleation score.
Given back: 0.316

Asked: Using the record for `YNKGFALIRIVRQTERRLHT` , state its measured amyloid nucleation score.
Given back: inactive

Asked: Using the record for `NKYYVRSSFELVIVYA` , state its measured amyloid nucleation score.
Given back: 0.142

Asked: Using the record for `LWDRVNCFYFRDEGDELEER` , state its measured amyloid nucleation score.
Given back: inactive

Asked: Using the record for `FGFCWLFNLCYLGNVVYAVM` , state its measured amyloid nucleation score.
Given back: inactive

###

# protocol.details: amyloid nucleation score (Sup35N fusion, yeast selection) (log enrichment); library NNK1; higher = more nucleation; inactive = no reads after selection
The substances listed here are annotated with their amyloid nucleation score.
API note: the answer field is a bare number with no unit suffix.

Illustrative cases are given below, each with its answer.
substance=FNTALSDPYVTMWHYYTNYC numeric_value=-0.8
substance=AKVPVKGQRLRTGLPKSTHT numeric_value=-1.88
substance=GPNTPSWYGCL numeric_value=0.196
substance=YWTALTFSHY numeric_value=0.486
substance=VEGLERLLVLWHWPFAWNYF numeric_value=-0.735
substance=LCYFQGSWYLVRCAIALTYV numeric_value=0.327
substance=QINLSGVSVDEWLSLWYGVL numeric_value=0.468
substance=FQSARR numeric_value=0.575

Asked: Using the record for `SLINTRVPPLENNAC` , state its measured amyloid nucleation score.
Given back: -0.443

Asked: Using the record for `AQSSVKRWGGLCRNVMKDGW` , state its measured amyloid nucleation score.
Given back: 0.276
